// data source = patent US20240016781A1

- Test system: SW48 KRAS (G12C/+)
- Assay text: 72-hour CellTiter-Glo 2.0 growth inhibition screen (single agent, 9x9 combination dose matrix)
- Type: cell-based
- Test context: Homo sapiens, SW48, 72 h, SW48 KRAS (G12C/+), Colorectal; growth inhibition (GI) curve, single agent, 72 h; read-out: EC50
Endpoint: EC50 (µM)

(1) CN1CCN(c2ccc(OC(F)(F)F)c(Nc3ncc4c(n3)-c3c(c(C(N)=O)nn3CCO)CC4)c2)CC1
(2) CC[C@@H]1C(=O)N(C)c2cnc(Nc3ccc(C(=O)N[C@H]4CC[C@H](N5CCN(CC6CC6)CC5)CC4)cc3OC)nc2N1C(C)C
Parameter metric = EC50. Return the lower-valued option from 1 and 2 . Identify your pick by its label.
2
